Measured values drawn from ChEMBL document CHEMBL2150974 for this set.

Collected pIC50 values appear next to each entry.
- measured_on: Mitogen-activated protein kinase 14 (Homo sapiens, UniProt Q16539)
- Sequence (Q16539 whole entry): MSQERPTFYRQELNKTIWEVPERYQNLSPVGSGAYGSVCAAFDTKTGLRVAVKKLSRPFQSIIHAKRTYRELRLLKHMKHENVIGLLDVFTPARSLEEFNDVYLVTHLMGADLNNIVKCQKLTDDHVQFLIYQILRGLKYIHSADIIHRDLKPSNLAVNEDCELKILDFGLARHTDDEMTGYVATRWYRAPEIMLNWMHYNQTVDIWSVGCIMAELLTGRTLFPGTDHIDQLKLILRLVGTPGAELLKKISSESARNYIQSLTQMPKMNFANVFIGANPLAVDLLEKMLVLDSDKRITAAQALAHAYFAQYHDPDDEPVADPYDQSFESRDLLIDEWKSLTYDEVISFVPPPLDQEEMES
- assay_details: Inhibition of p38alpha by immunosorbent based kinase assay
pIC50: −log10 of the molar value.

| molecular_string | pIC50 |
| --- | --- |
| O=C1c2ccc(Nc3ccc(F)cc3F)cc2CCc2ccc(OCCO)cc21 | 8.00 |
| COc1ccc2c(c1)C(=O)c1ccc(Nc3ccccc3OC)cc1CC2 | 6.42 |
| COc1ccc2c(c1)C(=O)c1ccc(Nc3ccc(F)cc3F)cc1CC2 | 7.70 |
| O=C1c2ccc(Nc3ccc(F)cc3F)cc2CCc2cc(OCCN3CCOCC3)ccc21 | 7.70 |
| Nc1ccccc1Nc1ccc2c(c1)CCc1cc(OC[C@H](O)CO)ccc1C2=O | 7.52 |

###

- measured_on: Mitogen-activated protein kinase 14 (Homo sapiens)
- assay_details: Inhibition of p38alpha-dependent TNFalpha production in human whole blood

| molecular_string | IC50 / µM |
| --- | --- |
| O=C1c2ccc(Nc3ccc(F)cc3F)cc2CCc2c(OC[C@H](O)CO)cccc21 | 100 |
| O=C1c2ccc(Nc3ccc(F)cc3F)cc2CCc2ccc(OCCCN3CCOCC3)cc21 | 0.08 |
| CC1(C)OC[C@H](COc2cccc3c2CCc2cc(Nc4ccccc4N)ccc2C3=O)O1 | 158 |
| O=c1c2ccc(Nc3ccc(F)cc3F)cc2ccc2ccc(O)cc12 | 26.7 |
| O=C1c2ccc(Nc3ccc(F)cc3F)cc2CCc2ccc(O)cc21 | 0.7 |
| COc1ccc2c(c1)C(=O)c1ccc(Nc3ccccc3N)cc1CC2 | 1.5 |
| COc1ccc2c(c1)C(=O)c1ccc(Nc3ccc(F)cc3Cl)cc1CC2 | 5.4 |
| CC1(C)OC[C@H](COc2ccc3c(c2)CCc2cc(Nc4ccccc4N)ccc2C3=O)O1 | 93.6 |
| O=C1c2ccc(Nc3ccc(F)cc3F)cc2CCc2ccc(OC3CCOCC3)cc21 | 0.53 |
| COc1ccc2c(c1)C(=O)c1ccc(Nc3ccccc3F)cc1CC2 | 4.9 |
| O=C1c2ccc(Nc3ccc(F)cc3Cl)cc2CCc2ccc(O)cc21 | 3.8 |
| COc1ccc2c(c1)C(=O)c1ccc(Nc3ccc(F)c(F)c3F)cc1CC2 | 81 |
| O=C1c2ccc(Nc3ccc(F)cc3F)cc2CCc2cc(OC[C@@H](O)CO)ccc21 | 5.2 |
| O=C1c2ccc(Nc3ccc(F)cc3F)cc2CCc2cc(OCCCO)ccc21 | 19.5 |
| O=C1c2ccc(Oc3ccc(F)cc3F)cc2CCc2ccc(OC[C@@H](O)CO)cc21 | 6.7 |
| COc1ccc2c(c1)C(=O)c1ccc(Nc3ccccc3)cc1CC2 | 3.2 |
| O=C1c2ccc(Nc3ccccc3Cl)cc2CCc2ccc(O)cc21 | 7.5 |
| COc1ccc2c(c1)C(=O)c1ccc(Nc3ccc(F)cc3N)cc1CC2 | 1.9 |
| O=C1c2ccc(Nc3ccc(F)cc3F)cc2CCc2ccc(OCCO)cc21 | 0.48 |
| COc1ccc2c(c1)C(=O)c1ccc(Nc3cc(F)cc(F)c3F)cc1CC2 | 4.3 |
| O=C1c2ccc(Nc3ccc(F)cc3F)cc2CCc2cc(OC[C@H](O)CO)ccc21 | 10.4 |
| COc1ccc2c(c1)C(=O)c1ccc(Nc3ccccc3Cl)cc1CC2 | 4.6 |
| Nc1ccccc1Nc1ccc2c(c1)CCc1c(OC[C@H](O)CO)cccc1C2=O | 78.8 |
| Nc1ccccc1Nc1ccc2c(c1)CCc1ccc(OC[C@H](O)CO)cc1C2=O | 0.08 |
| CC1(C)OC[C@@H](COc2ccc3c(c2)C(=O)c2ccc(Nc4ccccc4N)cc2CC3)O1 | 0.19 |
| CC1(C)OC[C@H](COc2ccc3c(c2)CCc2cc(Nc4ccc(F)cc4F)ccc2C3=O)O1 | 170 |
| COc1ccc2c(c1)C(=O)c1ccc(Nc3ccc(F)c(C)c3)cc1CC2 | 1.9 |
| COc1cccc2c1CCc1cc(Nc3ccccc3N)ccc1C2=O | 52.1 |
| COc1cccc2c1CCc1cc(Nc3ccc(F)cc3F)ccc1C2=O | 78.7 |
| COc1ccc2c(c1)CCc1cc(Nc3ccc(F)cc3F)ccc1C2=O | 10.2 |
| COc1ccc2c(c1)CCc1cc(Nc3ccccc3N)ccc1C2=O | 12.3 |
| COc1ccc2c(c1)C(=O)c1ccc(Nc3ccccc3OC)cc1CC2 | 7.6 |
| O=C1c2ccc(Nc3ccc(F)cc3F)cc2CCc2c(O)cccc21 | 37.3 |
| O=C1c2ccc(Oc3ccc(F)cc3F)cc2CCc2ccc(OCCN3CCOCC3)cc21 | 4.5 |
| COc1ccc2c(c1)C(=O)c1ccc(Nc3ccccc3C(F)(F)F)cc1CC2 | 33.6 |
| O=C1c2ccc(Nc3ccc(F)cc3F)cc2CCc2cc(OCCN3CCOCC3)ccc21 | 40 |
| COc1ccc2c(c1)C(=O)c1ccc(Nc3ccc(F)cc3F)cc1CC2 | 1.2 |
| COc1ccc2c(c1)C(=O)c1ccc(Nc3ccc(C(F)(F)F)cc3N)cc1CC2 | 25.5 |
| O=C1c2ccc(Nc3ccc(F)cc3F)cc2CCc2cc(OCCO)ccc21 | 4.7 |
| CC1(C)OC[C@@H](CCOc2ccc3c(c2)C(=O)c2ccc(Nc4ccc(F)cc4F)cc2CC3)O1 | 0.32 |
| O=C1c2ccc(Nc3ccc(F)cc3F)cc2CCc2c(OCCN3CCOCC3)cccc21 | 200 |
| O=C1c2ccc(Nc3ccc(F)cc3F)cc2CCc2ccc(OCC[C@@H](O)CO)cc21 | 0.08 |

###

- measured_on: Casein kinase II subunit alpha (Homo sapiens) (UniProt P68400)
- Sequence (P68400 whole entry, looked up): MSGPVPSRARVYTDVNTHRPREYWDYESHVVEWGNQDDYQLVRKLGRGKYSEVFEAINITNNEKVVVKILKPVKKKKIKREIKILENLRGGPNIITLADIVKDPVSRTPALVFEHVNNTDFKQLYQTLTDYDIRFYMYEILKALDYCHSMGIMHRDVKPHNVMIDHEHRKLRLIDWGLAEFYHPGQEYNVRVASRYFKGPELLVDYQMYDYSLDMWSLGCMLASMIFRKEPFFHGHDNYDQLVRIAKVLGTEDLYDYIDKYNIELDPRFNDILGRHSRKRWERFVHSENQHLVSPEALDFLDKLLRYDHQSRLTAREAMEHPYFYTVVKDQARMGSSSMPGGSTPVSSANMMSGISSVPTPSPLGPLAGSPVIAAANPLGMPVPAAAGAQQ
- assay_details: Inhibition of CK2alpha1 at 10 uM
Active and inactive are the calls of the source. No cut-off for these calls is given here.
reported_metric: inhibition

| molecular_string | test_value |
| --- | --- |
| CC1(C)OC[C@H](COc2cccc3c2CCc2cc(Nc4ccc(F)cc4F)ccc2C3=O)O1 | inactive |
| CC1(C)OC[C@H](COc2ccc3c(c2)CCc2cc(Nc4ccc(F)cc4F)ccc2C3=O)O1 | inactive |
| O=C1c2ccc(Nc3ccc(F)cc3F)cc2CCc2ccc(OCCO)cc21 | inactive |
| COc1ccc2c(c1)C(=O)c1ccc(Nc3ccc(F)c(C)c3)cc1CC2 | inactive |
| COc1ccc2ccc3cc(Nc4ccc(F)cc4F)ccc3c(=O)c2c1 | inactive |

###

- measured_on: Insulin-like growth factor 1 receptor (Homo sapiens) (UniProt P08069)
- Sequence (P08069 31-736 limits assumed): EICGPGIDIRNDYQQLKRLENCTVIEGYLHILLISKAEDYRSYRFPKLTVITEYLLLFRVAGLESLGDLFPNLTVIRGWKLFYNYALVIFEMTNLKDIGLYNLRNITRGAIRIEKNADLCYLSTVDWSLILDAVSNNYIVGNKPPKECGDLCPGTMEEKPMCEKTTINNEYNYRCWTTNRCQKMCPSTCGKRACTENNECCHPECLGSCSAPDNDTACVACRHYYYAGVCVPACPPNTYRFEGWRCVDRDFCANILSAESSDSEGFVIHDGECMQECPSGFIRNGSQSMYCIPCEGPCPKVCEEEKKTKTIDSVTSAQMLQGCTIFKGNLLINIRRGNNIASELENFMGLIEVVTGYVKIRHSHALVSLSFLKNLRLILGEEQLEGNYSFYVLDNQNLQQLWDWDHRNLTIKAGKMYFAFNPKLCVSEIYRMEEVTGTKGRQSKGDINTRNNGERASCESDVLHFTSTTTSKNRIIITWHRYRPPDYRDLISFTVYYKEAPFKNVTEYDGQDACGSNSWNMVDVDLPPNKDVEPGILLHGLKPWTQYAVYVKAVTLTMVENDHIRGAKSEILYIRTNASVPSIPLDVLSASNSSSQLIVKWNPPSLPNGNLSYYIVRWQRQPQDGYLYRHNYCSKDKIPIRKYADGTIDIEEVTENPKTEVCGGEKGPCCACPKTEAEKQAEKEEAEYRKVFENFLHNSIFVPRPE
- Sequence (P08069 741-1367 limits assumed): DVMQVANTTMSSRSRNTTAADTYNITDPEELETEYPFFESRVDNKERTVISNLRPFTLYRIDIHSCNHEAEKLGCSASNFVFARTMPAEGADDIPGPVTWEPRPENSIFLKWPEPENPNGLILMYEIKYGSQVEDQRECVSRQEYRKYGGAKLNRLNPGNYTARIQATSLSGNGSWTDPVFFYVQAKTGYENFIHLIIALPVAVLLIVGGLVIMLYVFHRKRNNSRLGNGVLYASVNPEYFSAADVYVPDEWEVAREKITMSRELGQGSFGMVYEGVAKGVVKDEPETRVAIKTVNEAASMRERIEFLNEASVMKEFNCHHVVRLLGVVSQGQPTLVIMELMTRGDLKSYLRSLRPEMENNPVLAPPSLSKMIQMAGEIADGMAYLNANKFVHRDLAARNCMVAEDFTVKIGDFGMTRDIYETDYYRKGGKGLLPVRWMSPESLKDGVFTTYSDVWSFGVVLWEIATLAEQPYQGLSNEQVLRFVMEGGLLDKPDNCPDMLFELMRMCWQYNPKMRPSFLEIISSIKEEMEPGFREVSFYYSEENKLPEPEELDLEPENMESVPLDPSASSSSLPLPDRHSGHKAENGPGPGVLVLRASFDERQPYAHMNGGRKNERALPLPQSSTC
- assay_details: Inhibition of IGF1R at 10 uM
Activity calls are given as the source filed them. The rule behind the calls is not given here.

| molecular_string | inhibition |
| --- | --- |
| CC1(C)OC[C@H](COc2ccc3c(c2)C(=O)c2ccc(Nc4ccccc4N)cc2CC3)O1 | inactive |
| Nc1ccccc1Nc1ccc2c(c1)CCc1ccc(OC[C@H](O)CO)cc1C2=O | inactive |
| Nc1ccccc1Nc1ccc2c(c1)CCc1c(OC[C@H](O)CO)cccc1C2=O | inactive |
| CC1(C)OC[C@@H](COc2ccc3c(c2)CCc2cc(Nc4ccc(F)cc4F)ccc2C3=O)O1 | inactive |
| O=C1c2ccc(Nc3ccc(F)cc3F)cc2CCc2ccc(OC[C@@H](O)CO)cc21 | inactive |
| O=C1c2ccc(Nc3ccc(F)cc3F)cc2CCc2ccc(OCCCN3CCOCC3)cc21 | inactive |
| CC1(C)OC[C@H](COc2ccc3c(c2)CCc2cc(Nc4ccc(F)cc4F)ccc2C3=O)O1 | inactive |
| COc1ccc2c(c1)C(=O)c1ccc(Nc3ccccc3Cl)cc1CC2 | inactive |
| O=C1c2ccc(Nc3ccc(F)cc3F)cc2CCc2cc(OC[C@H](O)CO)ccc21 | inactive |
| O=C1c2ccc(Nc3ccc(F)cc3F)cc2CCc2c(OC[C@H](O)CO)cccc21 | inactive |

###

- measured_on: Tyrosine-protein kinase receptor UFO (Homo sapiens)
- assay_details: Inhibition of AXL at 10 uM
Activity calls are given as the source filed them. No cut-off for these calls is given here.
reported_metric: inhibition

| molecular_string | test_value |
| --- | --- |
| O=C1c2ccc(Nc3ccc(F)cc3F)cc2CCc2ccc(OC[C@@H](O)CO)cc21 | inactive |
| O=C1c2ccc(Nc3ccc(F)cc3F)cc2CCc2ccc(OCCO)cc21 | inactive |
| CC1(C)OC[C@@H](COc2ccc3c(c2)CCc2cc(Nc4ccc(F)cc4F)ccc2C3=O)O1 | inactive |
| O=C1c2ccc(Nc3ccc(F)cc3F)cc2CCc2ccc(OCCCN3CCOCC3)cc21 | inactive |
| CC1(C)OC[C@H](COc2cccc3c2CCc2cc(Nc4ccc(F)cc4F)ccc2C3=O)O1 | inactive |
| CC1(C)OC[C@H](COc2cccc3c2CCc2cc(Nc4ccccc4N)ccc2C3=O)O1 | inactive |
| CC1(C)OC[C@H](COc2ccc3c(c2)C(=O)c2ccc(Nc4ccccc4N)cc2CC3)O1 | inactive |
| O=C1c2ccc(Nc3ccc(F)cc3F)cc2CCc2c(OC[C@H](O)CO)cccc21 | inactive |
| COc1cccc2c1CCc1cc(Nc3ccccc3N)ccc1C2=O | inactive |
| COc1ccc2c(c1)C(=O)c1ccc(Nc3cc(F)cc(F)c3F)cc1CC2 | inactive |
